system_name: Ubiquitin carboxyl-terminal hydrolase 1 (Homo sapiens) (UniProt O94782)
Sequence (O94782 whole entry, looked up): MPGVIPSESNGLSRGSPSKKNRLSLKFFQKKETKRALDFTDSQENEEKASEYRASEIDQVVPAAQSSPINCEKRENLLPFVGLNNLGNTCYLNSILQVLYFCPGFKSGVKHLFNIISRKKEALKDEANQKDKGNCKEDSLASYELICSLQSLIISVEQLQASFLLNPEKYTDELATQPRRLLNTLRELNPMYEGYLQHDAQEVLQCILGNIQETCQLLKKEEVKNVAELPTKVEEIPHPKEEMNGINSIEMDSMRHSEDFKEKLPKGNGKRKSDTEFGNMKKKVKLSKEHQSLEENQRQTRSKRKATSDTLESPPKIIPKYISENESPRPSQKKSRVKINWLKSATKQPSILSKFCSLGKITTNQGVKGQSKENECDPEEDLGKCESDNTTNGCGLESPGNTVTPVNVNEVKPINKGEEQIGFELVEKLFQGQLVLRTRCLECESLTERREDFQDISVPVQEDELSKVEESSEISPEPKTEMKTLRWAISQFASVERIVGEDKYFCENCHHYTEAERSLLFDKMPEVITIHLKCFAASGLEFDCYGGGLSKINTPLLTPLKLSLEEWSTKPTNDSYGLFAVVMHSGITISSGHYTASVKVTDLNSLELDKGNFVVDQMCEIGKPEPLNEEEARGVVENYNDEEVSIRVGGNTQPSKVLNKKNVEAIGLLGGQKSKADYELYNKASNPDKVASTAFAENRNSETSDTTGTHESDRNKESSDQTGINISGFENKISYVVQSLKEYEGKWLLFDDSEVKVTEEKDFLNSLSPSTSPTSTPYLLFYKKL
method_summary: Inhibitors of USP1/UAF1: Pilot qHTS (AID 504865);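 note: rhodamine fluorescence freed from ubiquitin-rhodamine substrate followed over time; top concentration of the series differs between compounds; % is set by controls: 0 for no effect and ±100 for the full control effect; nearly all actives have a fitted effect of over 35% in size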
condition_summary: purified USP1/UAF1, Ub-rhodamine cleavage fluorescence; series mostly up to 114 µM
Records with an inconclusive call do not appear. Activity calls are given as the source filed them. Calls come from the whole dose curve; as a rule, active = well fitted inhibition curve with a large enough effect; inconclusive = small, poorly fitted or top-dose-only effect; inactive = flat fitted curve, though single readings scatter.
value_kind: outcome

CC[C@@H]1CN2CCc3cc(OC)c(OC)cc3[C@H]2C[C@@H]1C[C@H]1NCCc2cc(OC)c(OC)cc21
inactive
COc1ccc(C(=O)O)cc1OC
inactive
CCN(CC)C(=O)N[C@@H]1C=C2c3cccc4[nH]cc(c34)C[C@H]2N(C)C1
inactive
OCC(O)Cc1ccc2c(c1)OCO2 (stereo not given)
inactive

Proceeding to the next compound to report its outcome.
Input line: Give a short answer stating reported outcome for C=CC[N+]1(C)CCC23c4c5ccc(O)c4O[C@H]2C(=O)CC[C@@]3(O)C1C5 (stereo not given in full) .
Output line: inactive

* * *

method_summary: S16 Schwann cell PMP22 intronic element firefly luciferase assay (AID 624032); note: nearly all actives have a fitted effect of over 30% in size
condition_summary: S16 rat Schwann cells, PMP22 element FLuc, 24 h; series mostly up to 57.5 µM
Inconclusive results are not listed. Activity calls are given as the source filed them. Calls follow the shape of the dose curve; as a rule, active = well fitted inhibition curve with a large enough effect; inconclusive = small, poorly fitted or top-dose-only effect; inactive = no such curve, though single readings can be large or run the other way.
The reply should be one of these categories: active, inactive

Input line: Check the results log: what was the call for CCCCCC(O)C1C(=O)OC(C)C(O)\C=C/C=C\C=C/C=C\C=C(\C)C(O)C(O)C(O)CC(O)CC(O)CC(O)CC(O)CC1O (stereo not given) ?
Output line: inactive

Input line: Check the results log: what was the call for C[n+]1c2cc(N)ccc2cc2ccc(N)cc21 ?
Output line: active

Input line: Check the results log: what was the call for CC1(C)S[C@@H]2[C@H](N)C(=O)N2C1C(=O)O (stereo not given in full) ?
Output line: inactive

Input line: Check the results log: what was the call for Cc1cn([C@H]2C[C@H](O)[C@@H](CO)O2)c(=O)[nH]c1=O ?
Output line: inactive

Input line: Check the results log: what was the call for C[C@]12C=CC(=O)N[C@@H]1CC[C@@H]1C2CC[C@]2(C)C(C(=O)Nc3cc(C(F)(F)F)ccc3C(F)(F)F)CC[C@@H]12 (stereo not given in full) ?
Output line: active

* * *

method_summary: qHTS assay for small molecule agonists of the antioxidant response element (ARE) signaling pathway measured by Nrf2-dependant transcriptional activity (AID 720636);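 for activation: HepG2 cells with an ARE-driven luciferase reporter; % of control where 0% means no effect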
condition_summary: ARE-luc HepG2, Nrf2 luciferase reporter, 16 h; series mostly up to 92.4 µM
Results filed as inconclusive are left out. Activity calls are given as the source filed them. The call rests on the fitted dose curve; in most records, active means well fitted activation curve with a large enough effect in the repeat runs; inconclusive means weak or mixed curves; inactive means flat fitted curve, though single readings scatter.
The reply should be one of these categories: active, inactive

Input line: Check the results log: what was the call for S=C([S-])NCCNC(=S)[S-].[Mn+2] ?
Output line: active

Input line: Check the results log: what was the call for CCCSP(=O)(OCC)Oc1ccc(Br)cc1Cl (stereo not given) ?
Output line: inactive

Input line: Check the results log: what was the call for CCOP(=S)(OCC)SCCl ?
Output line: inactive

Input line: Check the results log: what was the call for CC[C@H](C)[C@H]1O[C@]2(C=C[C@@H]1C)C[C@@H]1C[C@@H](C/C=C(\C)[C@@H](O[C@H]3C[C@H](OC)[C@@H](O[C@H]4C[C@H](OC)[C@@H](NC)[C@H](C)O4)[C@H](C)O3)[C@@H](C)/C=C/C=C3\CO[C@@H]4[C@H](O)C(C)=C[C@@H](C(=O)O1)[C@]34O)O2 ?
Output line: inactive

Input line: Check the results log: what was the call for CC1(C)C(C(=O)OC(C#N)c2cccc(Oc3ccccc3)c2)C1(C)C (stereo not given) ?
Output line: inactive

Input line: Check the results log: what was the call for CC1(C)CCC(Cc2ccc(Cl)cc2)C1(O)Cn1cncn1 (stereo not given) ?
Output line: inactive

Input line: Check the results log: what was the call for CC(C)(C)C(O)/C(=C\c1ccc(Cl)cc1Cl)n1cncn1 (stereo not given) ?
Output line: inactive

Input line: Check the results log: what was the call for CC(c1ccc(O)cc1)(c1ccc(O)cc1)c1ccc(O)cc1 ?
Output line: inactive

Input line: Check the results log: what was the call for CCC(C)c1ccc(O)cc1 (stereo not given) ?
Output line: inactive

Input line: Check the results log: what was the call for CN/C(=N/[N+](=O)[O-])NCC1CCOC1 (stereo not given) ?
Output line: inactive

* * *

method_summary: qHTS assay for environmental chemicals that activate the Aryl hydrocarbon Receptor (AhR) signaling pathway (AID 651777); note: % of control where 0% means no effect; nearly all actives have a fitted effect of over 15% in size
condition_summary: 1A2-DRE human hepatoma cells, luciferase, 24 h; hits give high values
Inconclusive results are not listed.
Can you tell me activation for the items I'm about to list?
Give the value in % but do not write % after it.

Input line: Give a short answer stating reported activation for [Ga]#[As] .
Output line: 0.963

Input line: Give a short answer stating reported activation for CCCCC(O)(Cn1cncn1)c1ccc(Cl)cc1Cl (configuration not stated) .
Output line: 2.7

Input line: Give a short answer stating reported activation for CCC[CH2][Sn]([Cl])([Cl])[CH2]CCC .
Output line: -11.4

Input line: Give a short answer stating reported activation for COP(=S)(OC)Oc1ccc([N+](=O)[O-])c(C)c1 .
Output line: 2.78

Input line: Give a short answer stating reported activation for N#CC(CCc1ccc(Cl)cc1)(Cn1cncn1)c1ccccc1 (configuration not stated) .
Output line: 3.22

Input line: Give a short answer stating reported activation for CCOS(=O)(=O)OCC .
Output line: -0.0167

Input line: Give a short answer stating reported activation for CCOCn1c(-c2ccc(Cl)cc2)c(C#N)c(Br)c1C(F)(F)F .
Output line: -4.34

* * *

System: CP211
method_summary: qHTS profiling for inhibitors of Plasmodium falciparum proliferation (AID 504749); note: nearly all actives have a fitted effect of over 60% in size
condition_summary: P. falciparum in erythrocytes, SYBR Green DNA, 72 h; series mostly up to 28.7 µM
Results filed as inconclusive are left out. Activity calls are given as the source filed them. Calls come from the whole dose curve; as a rule, active = well fitted inhibition curve with a large enough effect; inconclusive = small, poorly fitted or top-dose-only effect; inactive = flat fitted curve, though single readings scatter.
The reply should be one of these categories: t (active), f (inactive)

Input line: Check the results log: what was the call for CCCCCc1cc(O)c2c(c1)OC(C)(C)C1CC=C(C)CC21 (stereo unspecified) ?
Output line: t

Input line: Check the results log: what was the call for CCOC(=O)/C=C(C)/C=C/CC(C)CCCC(C)C (stereo unspecified) ?
Output line: f

Input line: Check the results log: what was the call for Cc1ccc2c(c1)[C@@H]1CN(C)CC[C@H]1N2 ?
Output line: f

Input line: Check the results log: what was the call for OC[C@@H](O)[C@H]1O[C@@H]2OC(C(Cl)(Cl)Cl)O[C@H]2[C@H]1O (stereo partly specified) ?
Output line: f

Input line: Check the results log: what was the call for C=CC[C@]1(O)CCC2C3CCC4=CCCCC4C3CCC21C (stereo partly specified) ?
Output line: f

Input line: Check the results log: what was the call for NC(Cc1ccc(Oc2cc(I)c(O)c(I)c2)c(I)c1)C(=O)O (stereo unspecified) ?
Output line: f

* * *

method_summary: Cell Viability - Jurkat (AID 426);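 note: potency is the fitted concentration of half-maximal effect; cells exposed to compound for 40 hours at 37 °C before ATP read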
condition_summary: qHTS
Inconclusive results are not listed. Active and inactive are the calls of the source.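 Rule for the calls: active = dose-dependent loss of cell ATP signal giving a full or clear fitted curve, ranked by lower potency value; inconclusive = weak partial curve or response only at the top dose; inactive = no loss of viability signal.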
The reply should be one of these categories: true (active), false (inactive)

Input line: Check the results log: what was the call for O=C(O)C1C(C(=O)O)C2(Cl)C(Cl)=C(Cl)C1(Cl)C2(Cl)Cl (configuration not stated) ?
Output line: false

Input line: Check the results log: what was the call for N#CC(Cl)Cl ?
Output line: true

Input line: Check the results log: what was the call for [CH3][Hg][Cl] ?
Output line: true

Input line: Check the results log: what was the call for Oc1c(Br)c(Br)c(Br)c(Br)c1Br ?
Output line: true

Input line: Check the results log: what was the call for O=[N+]([O-])C(Br)Br ?
Output line: true

Input line: Check the results log: what was the call for N#CSCSC#N ?
Output line: true

Input line: Check the results log: what was the call for c1ccc2cc3c(cc2c1)-c1cccc2cccc-3c12 ?
Output line: false

Input line: Check the results log: what was the call for C[C@@H]1CC[C@@]2(OC1)O[C@H]1[C@@H](O)[C@H]3[C@@H]4CC[C@H]5C[C@@H](O[C@@H]6O[C@H](CO)[C@H](O[C@@H]7O[C@H](CO)[C@@H](O)[C@H](O[C@@H]8OC[C@@H](O)[C@H](O)[C@H]8O)[C@H]7O[C@@H]7O[C@H](CO)[C@@H](O)[C@H](O[C@@H]8O[C@H](CO)[C@@H](O)[C@H](O)[C@H]8O)[C@H]7O)[C@H](O)[C@H]6O)[C@H](O)C[C@]5(C)[C@H]4CC[C@]3(C)[C@H]1[C@@H]2C ?
Output line: true

Input line: Check the results log: what was the call for Cc1ccc2ccccc2c1C ?
Output line: false

Input line: Check the results log: what was the call for O=[N+]([O-])c1ccccc1Cl ?
Output line: false

Input line: Check the results log: what was the call for O=[N+]([O-])c1cc(C(F)(F)F)cc([N+](=O)[O-])c1Cl ?
Output line: true

Input line: Check the results log: what was the call for C#CCO ?
Output line: false

Input line: Check the results log: what was the call for CN(C)c1ccc(N=O)cc1 ?
Output line: true

Input line: Check the results log: what was the call for CC(C)CC(C)Nc1ccc(Nc2ccccc2)cc1 (configuration not stated) ?
Output line: true

Input line: Check the results log: what was the call for ClC1=C(Cl)C2(Cl)C3C(Cl)C(Cl)CC3C1(Cl)C2(Cl)Cl (configuration not stated) ?
Output line: true

Input line: Check the results log: what was the call for O=C(CCl)c1ccccc1 ?
Output line: true

Input line: Check the results log: what was the call for COP(=O)(OC)O/C(=C\Cl)c1cc(Cl)c(Cl)cc1Cl ?
Output line: true
